Target: T1, human tumor necrosis factor-α (rHuTNF-alpha, Biosource) (human, UniProt P01375 77-233)
T1 construct: Bought recombinant protein coated on ELISA plates; The TNFα of the Biacore assay is not described further; also called TNFα; human TNFα
T1 sequence (P01375 77-233 limits assumed): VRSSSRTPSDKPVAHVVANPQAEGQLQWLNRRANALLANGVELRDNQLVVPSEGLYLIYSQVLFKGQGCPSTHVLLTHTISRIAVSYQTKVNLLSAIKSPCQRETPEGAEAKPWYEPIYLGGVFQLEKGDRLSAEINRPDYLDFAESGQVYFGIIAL
Assay: solid-phase ELISA, Fab lysate on coated rHuTNF-alpha
Method: The Fab libraries were cloned into pTrcHis2A (Cat. No. V365-20, Invitrogen, Carlsbad, Calif.). Proteins were expressed in E. coli and solid-phase ELISA was used to assess Fab binding to human TNFα. […] Substrate development was stopped by addition of 100 μL/well TMB Stop Solution (Cat. No. 50-85-05, KPL, Gaithersburg, Md.) and the absorbance was measured at 450 nm via an automated plate spectrophotometer.
parameter_measured: binding result

• SEQ ID NO 123 (Fab, V domains shown, Fab, E. coli lysate) VH: EVQLTESGGGLVQPGGSLRLSCRASQFTFSNHYMNWVRQAPGKGLEWIGEIRSKSSYGATSYAESVKGRFIISRDDNGNDLYLEMNSLKTEDTAEYYCARNYYGSTYDYWGQGTLVTVS VL: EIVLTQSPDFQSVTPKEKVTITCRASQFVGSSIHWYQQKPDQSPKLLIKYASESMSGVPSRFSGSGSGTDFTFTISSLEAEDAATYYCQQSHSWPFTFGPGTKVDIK = binds
• SEQ ID NO 170 (Fab, V domains shown, Fab, E. coli lysate) VH: EVQLVESGGGLVQPGGSLRLSCAASGSTFSNHWMNWVRQAPGKGLEWIGEIRSKSINSATHYAESVKGRFIISRDDNGTSLYLEMNSLKTEDTAEYYCAQNYYGSTYDYWGQGTLVTVS VL: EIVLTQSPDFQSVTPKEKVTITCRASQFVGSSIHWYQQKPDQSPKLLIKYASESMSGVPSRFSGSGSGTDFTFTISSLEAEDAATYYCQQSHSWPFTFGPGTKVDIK = binds
